Data origin, for the record: patent US20150011751A1

Measured pIC50 accompanies every entry in the list below.
- assayed.target: Dephosphorylated BTK (Homo sapiens)
Give only the number. pIC50 is defined as minus log10 of concentration in molar units.

Known results for molecules:
INSERT INTO measurements (molecule, reported_measurement) VALUES
  ('CC(C)(C)c1ccc(C(=O)Nc2cccc(-c3nc(N)nc(Nc4ccc(OCCN5CCCC5)cc4)n3)c2CO)cc1', 8.92),
  ('Cc1c(NC(=O)c2ccc(C(C)(C)C)cc2)cccc1-c1nc(N)nc(Nc2ccc(N3CCCC(O)C3)cc2)n1 (centres unmarked)', 8.66),
  ('CC(C)(C)c1ccc(C(=O)Nc2cccc(-c3nc(N)nc(Nc4ccc5[nH]c(=O)[nH]c5c4)n3)c2CO)cc1', 8.92),
  ('COCCOc1ccc(Nc2nc(N)nc(-c3cccc(N4CCc5cc(C6CC6)cc(F)c5C4=O)c3CO)n2)cc1OCCOC', 8.47),
  ('Cc1nccn1-c1ccc(Nc2nc(N)nc(-c3cccc(NC(=O)c4ccc(C(C)(C)C)cc4)c3CO)n2)cc1', 9.22);

Recorded pIC50 (molecule `Nc1nc(Nc2cnn(CC(=O)N3CCOCC3)c2)nc(-c2cccc(N3CCc4cc(C5CC5)cc(F)c4C3=O)c2CO)n1` ): 9.10

Recorded pIC50 (molecule `CC(C)(C)c1cc2c(s1)C(=O)N(c1cccc(-c3nc(N)nc(Nc4ccc(CN5CCOCC5)cc4)n3)c1CO)C2` ): 8.47

Recorded pIC50 (molecule `CC1(Cn2cc(Nc3nc(N)nc(-c4cccc(N5CCc6cc(C7CC7)cc(F)c6C5=O)c4CO)n3)cn2)COC1` ): 8.82

Recorded pIC50 (molecule `CC(C)(O)c1ccc(C(=O)Nc2cccc(-c3nc(N)nc(Nc4ccc(N5CCOCC5)cc4)n3)c2CO)cc1` ): 8.23

Recorded pIC50 (molecule `Nc1nc(Nc2ccc(N3CCC(O)CC3)cc2)nc(-c2cccc(N3CCc4cc(C5CC5)cc(F)c4C3=O)c2CO)n1` ): 8.80

Recorded pIC50 (molecule `Nc1nc(Nc2cnn(C3CCCC3)c2)nc(-c2cccc(N3CCc4cc(C5CC5)cc(F)c4C3=O)c2CO)n1` ): 9.30

Recorded pIC50 (molecule `Nc1nc(Nc2ccn(C3CC3)c2)nc(-c2cccc(N3CCc4cc(C5CC5)cc(F)c4C3=O)c2CO)n1` ): 8.48

Recorded pIC50 (molecule `CCCn1cc(Nc2nc(N)nc(-c3cccc(N4CCc5cc(C6CC6)cc(F)c5C4=O)c3CO)n2)cn1` ): 9.10

Recorded pIC50 (molecule `CC(C)(C)c1ccc(C(=O)Nc2cccc(-c3nc(N)nc(Nc4ccc(S(N)(=O)=O)cc4)n3)c2CO)cc1` ): 9.10

---

Record: pIC50 reported on Dephosphorylated BTK (Homo sapiens, UniProt Q06187).
Sequence (Q06187 whole entry): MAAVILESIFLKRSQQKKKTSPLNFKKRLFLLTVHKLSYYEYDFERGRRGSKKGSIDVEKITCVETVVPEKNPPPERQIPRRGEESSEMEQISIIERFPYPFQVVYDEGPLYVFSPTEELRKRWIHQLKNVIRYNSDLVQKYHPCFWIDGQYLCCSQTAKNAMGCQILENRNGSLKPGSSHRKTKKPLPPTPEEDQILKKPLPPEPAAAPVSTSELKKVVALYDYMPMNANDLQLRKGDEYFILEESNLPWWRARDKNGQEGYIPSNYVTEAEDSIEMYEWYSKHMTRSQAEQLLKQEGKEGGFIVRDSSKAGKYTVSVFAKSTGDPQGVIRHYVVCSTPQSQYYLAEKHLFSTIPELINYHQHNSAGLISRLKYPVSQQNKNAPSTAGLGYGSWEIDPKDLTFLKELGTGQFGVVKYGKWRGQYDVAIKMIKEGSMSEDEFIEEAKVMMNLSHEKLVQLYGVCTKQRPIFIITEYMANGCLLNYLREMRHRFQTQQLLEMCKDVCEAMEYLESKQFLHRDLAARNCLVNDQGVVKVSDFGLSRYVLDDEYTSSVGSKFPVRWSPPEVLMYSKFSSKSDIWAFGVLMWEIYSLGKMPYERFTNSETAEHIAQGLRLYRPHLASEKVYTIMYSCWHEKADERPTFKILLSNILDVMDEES
Give only the number. pIC50 is defined as minus log10 of concentration in molar units.

Known results for compounds:
INSERT INTO measurements (compound, reported_measurement) VALUES
  ('Nc1nc(Nc2ccc(N3CCOC(CO)C3)cc2)nc(-c2cccc(NC(=O)c3cc4c(s3)CCCC4)c2CO)n1 (stereo not shown) [Example 127]', 9.30),
  ('CC(C)(C)c1ccc(C(=O)Nc2cccc(-c3nc(N)nc(Nc4ccc(OCCN5CCOCC5)cc4)n3)c2CO)cc1 [Example 78]', 8.92),
  ('Nc1nc(Nc2ccc(N3CCOCC3)cc2)nc(-c2cccc(NC(=O)c3ccc(C4CC4)cc3F)c2CO)n1 [Example 145]', 8.74);

Okay, next one:
Summary: CCn1ccc(Nc2nc(N)nc(-c3cccc(N4CCc5cc(C6CC6)cc(F)c5C4=O)c3CO)n2)c1 [Example 231] , Dephosphorylated BTK (Homo sapiens, UniProt Q06187), pIC50 = 8.77
